procedureSummary: Kinetic solubility determination in PBS
Type: physicochemical
conditionSet: phosphate buffered saline (PBS 1×), 21 °C, pH 7.4, aqueous buffer, kinetic from dmso stock, PBS 1X pH 7.4, 2.0% DMSO, 24 hour incubation at ambient temperature, read-out: Solubility in aqueous PBS Buffer (1X, pH 7.4), ug/mL
Protocol: Kinetic solubility buffer (phosphate buffered saline (PBS, 1×) at pH 7.4) was prepared from PBS (10×) solution, (Fisher Scientific, Pittsburgh, Pa., USA, 10×), by adding PBS (50 mL, 10×) to approximately water (450 mL HPLC grade). The volume of the solution was then adjusted to 500 mL for a total dilution factor of 1:10 and a final PBS concentration of 1×. The pH of the final solution (PBS (1×)) was measured and found to be 7.4. […]
Counter-ions that a name gives are not always drawn.
Some molecules, each annotated with its measured solubility at 24 h.

Example cases with answers are listed next.
CC[C@H](C)[C@H](NC(=O)Cc1ccncc1)C(=O)NCC(=O)N1c2ccccc2C[C@H]1C(=O)NCc1nn[nH]n1    > 80 µg/mL
CC[C@H](C)[C@H](NC(=O)Cc1ccccc1)C(=O)NCC(=O)N1c2cc(NC(=O)CCC(=O)O)ccc2C[C@H]1C(=O)NCc1nn[nH]n1    > 486 µg/mL
CC[C@H](C)[C@H](NC(=O)CCCN)C(=O)NCC(=O)N1c2ccccc2C[C@H]1C(=O)NCc1nn[nH]n1 [Example A7, Hydrochloride]    67 µg/mL
CC[C@H](C)[C@H](NC(=O)c1ccccc1C(=O)O)C(=O)NCC(=O)N1c2ccccc2C[C@H]1C(=O)NCc1nn[nH]n1    462 µg/mL

Which solubility at 24 h value is on record for `CC[C@H](C)[C@H](NC(=O)CCC(=O)O)C(=O)NCC(=O)N1c2ccccc2C[C@H]1C(=O)NCc1c[nH]nn1` ?
> 385 µg/mL

Which solubility at 24 h value is on record for `CC[C@H](C)[C@H](NC(=O)CCC(C)(C)C(=O)O)C(=O)NCC(=O)N1c2ccccc2C[C@H]1C(=O)NCc1nn[nH]n1` ?
> 418 µg/mL

Which solubility at 24 h value is on record for CC[C@H](C)[C@H](NC(=O)C(C)CC(=O)O)C(=O)NCC(=O)N1c2ccccc2C[C@H]1C(=O)NCc1nn[nH]n1 (single isomer, unassigned) ?
> 396 µg/mL

Which solubility at 24 h value is on record for `CC[C@H](C)[C@H](NC(=O)C(C)(C)CC(=O)O)C(=O)NCC(=O)N1c2ccccc2C[C@H]1C(=O)NCc1nn[nH]n1` ?
> 407 µg/mL

Which solubility at 24 h value is on record for CC[C@H](C)[C@H](NC(=O)CC(C)CC(=O)O)C(=O)NCC(=O)N1c2ccccc2C[C@H]1C(=O)NCc1nn[nH]n1 (single isomer, unassigned) ?
> 407 µg/mL
